Provenance of the data: patent US20080269213A1

# Study System: recombinant human Aggrecanase-2 Agg2-Phe628 (Homo sapiens)
# Sequence (Q9UNA0 262-628 limits assumed): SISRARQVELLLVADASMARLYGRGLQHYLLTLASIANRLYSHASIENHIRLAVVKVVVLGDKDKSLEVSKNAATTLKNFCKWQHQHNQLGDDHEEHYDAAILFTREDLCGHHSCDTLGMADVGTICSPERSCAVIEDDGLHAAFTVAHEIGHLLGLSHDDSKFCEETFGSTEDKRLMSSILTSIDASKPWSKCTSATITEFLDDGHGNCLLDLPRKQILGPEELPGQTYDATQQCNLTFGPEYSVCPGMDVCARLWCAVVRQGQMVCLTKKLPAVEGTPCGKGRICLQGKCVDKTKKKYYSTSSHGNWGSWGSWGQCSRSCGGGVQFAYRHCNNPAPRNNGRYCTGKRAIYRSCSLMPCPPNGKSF
# Assay Notes: Aggrecanase 2 in vitro enzyme assay (Agg-2 FRET, quenched fluorescent peptide substrate)
# Assay type: biochemical
# Design: purified recombinant human Aggrecanase-2 Agg2-Phe628 (MW=41,737); This is a truncated form of full-length human aggrecanase-2; made in house; host or cells: CHO cells
# Reported Conditions: read-out: Agg2 IC50
Listed below: IC50 values for each entry.
Assay Readout: IC50 (µM)

Compound	Inequality Operator	Val
O=C(Cc1ccccc1)NC(/C=C/c1ccccc1)c1cc(Cl)c2cccnc2c1O (stereo not drawn)	=	50
O=C(COc1ccccc1)NC(c1ccc2c(c1)OCCO2)c1cc(Cl)c2cccnc2c1O (stereo not drawn)	=	0.85
O=C(CCc1ccccc1)NC(c1ccccc1)c1cc(Cl)c2cccnc2c1O (stereo not drawn)	>	5
O=C(COc1ccccc1)NC(c1ccccc1)c1cc(Cl)c2ccccc2c1O (stereo not drawn)	>	67
O=C(COc1ccccc1)NC(c1ccc(F)cc1)c1cc(Cl)c2cccnc2c1O (stereo not drawn)	=	1.2
COc1cccc(C(NC(=O)COc2ccccc2)c2cc(Cl)c3cccnc3c2O)c1 (stereo not drawn)	=	1.8
O=C(COc1ccccc1)NC(c1ccccc1)c1cc(N2CCCC2)c2cccnc2c1O (stereo not drawn)	=	10.5
O=C(CNCc1ccc(-c2ccccc2)cc1)NC(c1ccccc1)c1cc(Cl)c2cccnc2c1O (stereo not drawn)	=	1.29
